Collected Test D disease control rating values appear next to each entry.
system: Puccinia recondite f. sp. tritici; experiment: Test D: preventive spray on wheat seedlings, Puccinia recondite f. sp. tritici (wheat leaf rust), visual disease rating; assay type: in vivo; conditions: 100 = 100% disease control, 0 = no control, unmarked values
Supply the numeric figure in %, leaving out any unit text.

Examples from the recorded data:
Lookup: // lookup Test D disease control rating for COc1cccc(C2CC(c3ccc(-c4ccccc4NC(=O)c4cn(C)nc4C(F)F)cn3)=NO2)c1 (stereo not shown) [compound 102]
Found: 100

Lookup: // lookup Test D disease control rating for Cc1cc(-c2ccccc2NC(=O)c2ncccc2C(F)(F)F)cnc1-n1ccc(C(F)(F)F)n1 [compound 37]
Found: 100

Lookup: // lookup Test D disease control rating for Cn1cc(C(=O)Nc2ccccc2-c2ccc(-n3ccc(Br)n3)nc2)c(C(F)F)n1 [compound 11]
Found: 100

Lookup: // lookup Test D disease control rating for Cn1cc(C(=O)Nc2ccccc2-c2cnc(-n3cc(Cl)cn3)c(Cl)c2)c(C(F)F)n1 [compound 62]
Found: 100

Further cases:
Lookup: // lookup Test D disease control rating for O=C(Nc1ccccc1-c1cnc(-n2ccc(C(F)(F)F)n2)nc1)c1nccnc1Cl [compound 55]
Found: 91

Lookup: // lookup Test D disease control rating for Cc1ccsc1C(=O)Nc1ccccc1-c1ccc(-n2ccc(C(F)(F)F)n2)nc1 [compound 93]
Found: 100

Lookup: // lookup Test D disease control rating for N#Cc1cc(-c2ccccc2NC(=O)c2nccnc2Cl)cnc1-n1ccc(C(F)(F)F)n1 [compound 108]
Found: 96

Lookup: // lookup Test D disease control rating for Cc1ccsc1C(=O)Nc1ccccc1-c1cnc(-n2ccc(C(F)(F)F)n2)c(F)c1 [compound 152]
Found: 100

Lookup: // lookup Test D disease control rating for Cn1cc(C(=O)Nc2ccccc2-c2cnc(-n3ccc(C(F)(F)F)n3)c(Cl)c2)c(C(F)F)n1 [compound 35]
Found: 100

###

System: Septoria tritici
Assay: Test C: preventive spray on wheat seedlings, Septoria tritici (wheat leaf blotch), visual disease rating
Format: in vivo
Conditions: values marked with asterisk (*), meaning not given
Text: General protocol for preparing test suspensions for Tests A-E: the test compounds were first dissolved in acetone in an amount equal to 3% of the final volume and then suspended at the desired concentration (in ppm) in acetone and purified water (50/50 mix by volume) containing 250 ppm of the surfactant Trem® 014 (polyhydric alcohol esters). […]
Marks after values point to notes of the source that are not given here.
experimental-readout: Test C disease control rating

Examples from the recorded data:
Lookup: // lookup Test C disease control rating for O=C(Nc1ccccc1-c1cnc(-n2ccc(C(F)(F)F)n2)c(Cl)c1)c1sccc1F [compound 176]
Found: 93* %

Lookup: // lookup Test C disease control rating for Cc1ncsc1C(=O)Nc1ccccc1-c1cnc(-n2ccc(C(F)(F)F)n2)c(Cl)c1 [compound 164]
Found: 96* %

Further cases:
Lookup: // lookup Test C disease control rating for Cc1sccc1C(=O)Nc1ccccc1-c1cnc(-n2ccc(C(F)(F)F)n2)c(Cl)c1 [compound 138]
Found: 99* %

Lookup: // lookup Test C disease control rating for O=C(Nc1ccccc1-c1cnc(-n2ccc(C(F)(F)F)n2)c(Cl)c1)c1ccsc1Cl [compound 120]
Found: 98* %

###

system: Septoria tritici; test: Test C: preventive spray on wheat seedlings, Septoria tritici (wheat leaf blotch), visual disease rating; type: in vivo; settings: 100 = 100% disease control, 0 = no control, unmarked values
experimental-readout: Test C disease control rating (%)
Supply the numeric figure in %, leaving out any unit text.

Lookup: Please tell me: Test C disease control rating of `O=C(Nc1ccccc1-c1ccc(-n2cc(Cl)cn2)nc1)c1ncccc1Cl` , system Septoria tritici?
Found: 62

Lookup: Please tell me: Test C disease control rating of `O=C(Nc1ccccc1-c1ccc(-n2cc(-c3ccc(F)cc3)cn2)nc1)c1ncccc1C(F)(F)F` , system Septoria tritici?
Found: 91

Lookup: Please tell me: Test C disease control rating of `O=C(Nc1ccccc1-c1ccc(-n2ccc(C(F)(F)F)n2)nc1)c1ncccc1Cl` , system Septoria tritici?
Found: 100

Lookup: Please tell me: Test C disease control rating of `O=C(Nc1ccccc1-c1ccc(-n2cc(Cl)cn2)nc1)c1ccccc1C(F)(F)F` , system Septoria tritici?
Found: 18

Lookup: Please tell me: Test C disease control rating of `O=C(Nc1ccccc1-c1ccc(-n2ccc(-c3ccccc3)n2)nc1)c1ncccc1Cl` , system Septoria tritici?
Found: 0

Lookup: Please tell me: Test C disease control rating of `O=C(Nc1ccccc1-c1ccc(-n2cc(-c3ccccc3F)cn2)nc1)c1ncccc1C(F)(F)F` , system Septoria tritici?
Found: 100

Lookup: Please tell me: Test C disease control rating of `O=C(Nc1ccccc1-c1cnc(-n2ccc(-c3ccccc3)n2)c(F)c1)c1ccccc1C(F)(F)F` , system Septoria tritici?
Found: 100

Lookup: Please tell me: Test C disease control rating of `Cn1cc(C(=O)Nc2ccccc2-c2ccc(-n3ccc(-c4ccc(F)cc4F)n3)nc2)c(C(F)F)n1` , system Septoria tritici?
Found: 94

Further cases:
Lookup: Please tell me: Test C disease control rating of `Cn1cc(C(=O)Nc2ccccc2-c2ccc(-n3ccc(Br)n3)nc2)c(C(F)F)n1` , system Septoria tritici?
Found: 100

Lookup: Please tell me: Test C disease control rating of `COc1ccc(-c2ccn(-c3ccc(-c4ccccc4NC(=O)c4cn(C)nc4C(F)F)cn3)n2)c(OC)c1` , system Septoria tritici?
Found: 87

Lookup: Please tell me: Test C disease control rating of `Cc1cc(-c2ccccc2NC(=O)c2ccccc2C(F)(F)F)cnc1-n1ccc(C(F)(F)F)n1` , system Septoria tritici?
Found: 100

###

Tested on: Septoria tritici
Assay: Test C: preventive spray on wheat seedlings, Septoria tritici (wheat leaf blotch), visual disease rating
Type: in vivo
Settings: 100 = 100% disease control, 0 = no control, unmarked values
Excerpt: General protocol for preparing test suspensions for Tests A-E: the test compounds were first dissolved in acetone in an amount equal to 3% of the final volume and then suspended at the desired concentration (in ppm) in acetone and purified water (50/50 mix by volume) containing 250 ppm of the surfactant Trem® 014 (polyhydric alcohol esters). […]
Collected Test C disease control rating values appear next to each entry.
Supply the numeric figure in %, leaving out any unit text.

Lookup: // lookup Test C disease control rating for `Cc1cc(-c2ccccc2NC(=O)c2cn(C)nc2C(F)F)cnc1-n1ccc(C(F)(F)F)n1`
Found: 100

Further cases:
Lookup: // lookup Test C disease control rating for `Cn1cc(C(=O)Nc2ccccc2-c2cnc(-n3cc(Cl)cn3)c(Cl)c2)c(C(F)F)n1`
Found: 100

Lookup: // lookup Test C disease control rating for `COc1cc(OC)cc(-c2cnn(-c3ccc(-c4ccccc4NC(=O)c4cn(C)nc4C(F)F)cn3)c2)c1`
Found: 100

Lookup: // lookup Test C disease control rating for `Cc1cnn(-c2ccc(-c3ccccc3NC(=O)c3ncccc3Cl)cn2)c1`
Found: 8

Lookup: // lookup Test C disease control rating for `O=C(Nc1ccccc1-c1cnc(-n2ccc(-c3ccccc3)n2)c(F)c1)c1ncccc1C(F)(F)F`
Found: 100

Lookup: // lookup Test C disease control rating for CC1(C(=O)O)CC(c2ccc(-c3ccccc3NC(=O)c3ncccc3C(F)(F)F)cn2)=NO1 (racemic)
Found: 1

Lookup: // lookup Test C disease control rating for `O=C(Nc1ccccc1-c1ccc(-n2cc(-c3cc(F)cc(F)c3)cn2)nc1)c1ncccc1C(F)(F)F`
Found: 100

Lookup: // lookup Test C disease control rating for `O=C(Nc1ccccc1-c1cnc(-n2ccc(C(F)(F)F)n2)c(F)c1)c1nccnc1Cl`
Found: 97

Lookup: // lookup Test C disease control rating for `O=C(Nc1ccccc1-c1ccc(-n2ccc(Br)n2)nc1)c1ncccc1C(F)(F)F`
Found: 100

Lookup: // lookup Test C disease control rating for `Cc1cc(-c2ccccc2NC(=O)c2ncccc2C(F)(F)F)cnc1-n1cc(Cl)cn1`
Found: 100

###

Collected Test C disease control rating values appear next to each entry.
test system: Septoria tritici; experiment: Test C: preventive spray on wheat seedlings, Septoria tritici (wheat leaf blotch), visual disease rating; type: in vivo; conditions: 100 = 100% disease control, 0 = no control, unmarked values
Supply the numeric figure in %, leaving out any unit text.

Examples from the recorded data:
Lookup: // lookup Test C disease control rating for `O=C(Nc1ccccc1-c1ccc(-n2cc(Br)cn2)nc1)c1ncccc1C(F)(F)F`
Found: 100

Lookup: // lookup Test C disease control rating for O=C(Nc1ccccc1-c1ccc(C2=NOC(c3ccc(F)cc3)C2)nc1)c1ncccc1C(F)(F)F (racemic)
Found: 99

Lookup: // lookup Test C disease control rating for `COc1cccc(-c2cnn(-c3ccc(-c4ccccc4NC(=O)c4ncccc4C(F)(F)F)cn3)c2)c1`
Found: 100

Here is another compound to look at.
Lookup: // lookup Test C disease control rating for COc1cccc(C2CC(c3ccc(-c4ccccc4NC(=O)c4cn(C)nc4C(F)F)cn3)=NO2)c1 (stereo not shown)
Found: 97

###

system: Puccinia recondite f. sp. tritici; assay: Test D: preventive spray on wheat seedlings, Puccinia recondite f. sp. tritici (wheat leaf rust), visual disease rating; assay type: in vivo; details: 100 = 100% disease control, 0 = no control, unmarked values
Collected Test D disease control rating values appear next to each entry.
Supply the numeric figure in %, leaving out any unit text.

Lookup: // lookup Test D disease control rating for `Cc1sccc1C(=O)Nc1ccccc1-c1cnc(-n2ccc(C(F)(F)F)n2)c(F)c1`
Found: 100

Lookup: // lookup Test D disease control rating for `Cc1cc(-c2ccccc2NC(=O)c2ncccc2C(F)(F)F)cnc1-n1cc(Cl)cn1`
Found: 100

Lookup: // lookup Test D disease control rating for `CC1=C(C(=O)Nc2ccccc2-c2cnc(-n3ccc(C(F)(F)F)n3)c(F)c2)SCCO1`
Found: 97

Lookup: // lookup Test D disease control rating for `O=C(Nc1ccccc1-c1ccc(-n2ccc(C(F)(F)F)n2)nc1)c1nccnc1Cl`
Found: 98

Lookup: // lookup Test D disease control rating for `Cn1cc(C(=O)Nc2ccccc2-c2cnc(-n3ccc(-c4ccccc4)n3)c(F)c2)c(C(F)F)n1`
Found: 100

Lookup: // lookup Test D disease control rating for `COc1cc(OC)cc(-c2cnn(-c3ccc(-c4ccccc4NC(=O)c4cn(C)nc4C(F)F)cn3)c2)c1`
Found: 100

Lookup: // lookup Test D disease control rating for `O=C(Nc1ccccc1-c1cnc(-n2ccc(Cl)n2)c(F)c1)c1ncccc1C(F)(F)F`
Found: 100

Lookup: // lookup Test D disease control rating for `Cn1cc(C(=O)Nc2ccccc2-c2ccc(-n3cc(-c4cccc(F)c4)cn3)nc2)c(C(F)F)n1`
Found: 100

Lookup: // lookup Test D disease control rating for `Cn1cc(C(=O)Nc2ccccc2-c2cnc(-n3cc(Cl)cn3)c(F)c2)c(C(F)F)n1`
Found: 100

Lookup: // lookup Test D disease control rating for `Cc1ccc(-c2ccc(-c3ccccc3NC(=O)c3cn(C)nc3C(F)F)cn2)o1`
Found: 100

Further cases:
Lookup: // lookup Test D disease control rating for Cc1cnn(-c2ccc(-c3ccccc3NC(=O)c3ccccc3C(F)(F)F)cn2)c1 [compound 44]
Found: 99

Lookup: // lookup Test D disease control rating for `COc1cc(OC)cc(-c2ccn(-c3ccc(-c4ccccc4NC(=O)c4cn(C)nc4C(F)F)cn3)n2)c1`
Found: 100

Lookup: // lookup Test D disease control rating for `COc1cccc(-c2cnn(-c3ccc(-c4ccccc4NC(=O)c4cn(C)nc4C(F)F)cn3)c2)c1`
Found: 100

Value source: patent US9730447B2
